test system: Inhibin beta A chain (activin A); assay: INHBA (activin A) binders on microarrays, primary screen, biochemical, small-molecule microarray, 635 nm fluorescence scan (AID 1107); conditions: small-molecule microarray binding, higher = more signal;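 further: mouse activin A protein probed at 4.33 µg/mL on printed slides; score merges bound-protein fluorescence near 667 nm with spot signal-to-noise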
measure_name: composite z-score

molecule=COCCCNC(=O)[C@@]1(CCC(=O)OC(C)(C)C)N=C(c2ccc(OCCCO)cc2)O[C@H]1c1ccccc1 measure_name="composite z-score" assay_value=0.701
molecule=COC(=O)[C@@]1(Cc2ccc(F)cc2)[C@H]2c3cc(C(=O)N(C)C)n(Cc4ccsc4Br)c3C[C@H]2CN1C(=O)c1ccccc1 measure_name="composite z-score" assay_value=0.5
molecule=COC(=O)C(CC#Cc1ccc2c(c1)[C@]1(C(=O)N2)[C@H](C(=O)N2CCN(c3ncccn3)CC2)[C@H]2C(=O)O[C@H](c3ccccc3)[C@H](c3ccccc3)N2[C@@H]1c1ccc(O)cc1)C(=O)OC measure_name="composite z-score" assay_value=1.59
molecule=O=C(NCC(F)(F)F)[C@@H]1c2ccccc2C(=O)N(Cc2cc(C(F)(F)F)cc(C(F)(F)F)c2)[C@H]1c1ccc(CO)cc1 measure_name="composite z-score" assay_value=0.0807
molecule=CC(C)(C)OC(=O)CC[C@@]1(C(=O)N2CCOCC2)N=C(c2ccc(OCCCO)cc2)O[C@@H]1c1ccccc1CN=[N+]=[N-] measure_name="composite z-score" assay_value=1.01
molecule=[N-]=[N+]=NCc1ccccc1[C@H]1OC(c2ccc(OCCCO)cc2)=N[C@@]1(Cc1ccccc1N=[N+]=[N-])C(=O)N1CCOCC1 measure_name="composite z-score" assay_value=0.594
molecule="COc1cc2c(cc1O)C(C)N(Cc1sc3ccccc3c1Cl)CC2 (centres undefined)" measure_name="composite z-score" assay_value=-0.0182
molecule=CC(C)(C)OC(=O)CC[C@@]1(C(N)=O)N=C(c2ccc(OCCCO)cc2)O[C@@H]1c1ccccc1CN=[N+]=[N-] measure_name="composite z-score" assay_value=0.854
molecule=C=CCNC(=O)[C@@H]1[C@H]2C(=O)O[C@H](c3ccccc3)[C@H](c3ccccc3)N2[C@H](c2ccc(O)cc2)[C@@]12C(=O)N(C(=O)OCCOC)c1ccc(C#CCC(C(=O)OC)C(=O)OC)cc12 measure_name="composite z-score" assay_value=0.273
molecule=C=C(CCCC)C(=O)CC[C@@H](OC(C)=O)c1ccc(OCCO)cc1 measure_name="composite z-score" assay_value=0.204
molecule=CCOC(=O)C[C@H]1[C@H](OC(=O)c2ccc(-c3ccccc3)cc2)[C@@H](NC(=O)c2ccc(-c3ccccc3)cc2)c2cc(OCCCO)ccc2N1C(=O)c1ccccc1 measure_name="composite z-score" assay_value=-0.12
molecule=O=C1OC[C@@H](c2ccccc2)n2cc(/C=C/c3ccccc3)cc21 measure_name="composite z-score" assay_value=0.0778
molecule=CCOC(=O)C1=CC[C@@H](c2ccccc2)N(S(=O)(=O)c2ccc(C)cc2)[C@@H]1C#N measure_name="composite z-score" assay_value=0.767
molecule=CCOC(=O)C[C@H]1[C@H](OC(=O)c2ccc(-c3ccccc3)cc2)[C@@H](NC(=O)C2CCCCC2)c2cc(OCCCO)ccc2N1C(=O)Cc1ccc(OC)cc1 measure_name="composite z-score" assay_value=0.647

###

system: Human papillomavirus type 1a E7 protein (residues 1-88); test: HPV1a E7 small-molecule binders, primary screen, biochemical, small-molecule microarray, residues 1-88, 635 nm (AID 1129); conditions: small-molecule microarray binding, fluorescence 635 nm; higher = more signal
measure_name: composite z-score

molecule=OCCCc1cc[n+](Cc2cc3c(cc2Br)OCO3)cc1 assay_value=-1.86
molecule="O=C1NC(=O)C2C1C=CC(C(O)C(O)CO)N2Nc1ccccn1 (stereo unspecified)" assay_value=0.434
molecule=C=C(C(=O)CC[C@@H](OC(=O)c1ccccc1-c1ccccc1C(=O)O)c1ccc(CO)o1)C(C)C assay_value=0.434
molecule=O=C(CS)NCCCCCCNC(=O)[C@H]1C[C@H]2C(=O)NCC(=O)N2[C@H]1c1cccc(OCCO)c1 assay_value=0.245
molecule=COC(=O)[C@]1(Cc2ccccc2N=[N+]=[N-])N=C(c2ccc(OCCCO)cc2)O[C@@H]1c1ccccc1CN=[N+]=[N-] assay_value=1.12
molecule=CCOC(=O)C[C@H]1[C@H](OC(=O)c2cc3ccccc3oc2=O)[C@@H](NC(=O)Cc2ccc(OC)cc2)c2cc(OCCCO)ccc2N1C(=O)Cc1ccc(OC)cc1 assay_value=-0.624
molecule=C=C[C@@H](CO)NS(=O)(=O)c1ccc(Br)cc1 assay_value=-0.371
molecule="O=C1C2C=CC(C(O)C3CCCCC3)N(Nc3ccccc3F)C2C(=O)N1c1ccccc1 (stereo unspecified)" assay_value=1.23
molecule="O=C1OCCC/C=C\\[C@H]2OC34C=CCN(Cc5ccccc5)C(=O)[C@H]3N(CCO)C(=O)[C@@H]4C12 (stereo partly specified)" assay_value=0.444
molecule=C=CC[C@H](OC(=O)Nc1ccc(SC)cc1)c1ccc(O)c(F)c1 assay_value=0.294
molecule=CO[C@H]1O[C@H](CO)[C@@H](OC(=O)CCc2ccccc2)[C@@H]2OC(=O)[C@@H](Cc3ccc4ccccc4c3)C/C=C/C[C@H](Cc3ccc4ccccc4c3)C(=O)O[C@@H]12 assay_value=0.0444
molecule=CCOC(=O)C[C@H]1[C@H](OC(=O)c2ccc(-c3ccccc3)cc2)[C@@H](NC(=O)c2ccc(-c3ccccc3)cc2)c2cc(OCCCO)ccc2N1C(=O)c1ccccc1 assay_value=1.09
molecule="COC(=O)c1ccc(OC)c(/C=C\\CC(OC(=O)c2ccncc2)c2ccccc2)c1 (stereo unspecified)" assay_value=-0.0099
molecule="COc1cc(CO)cc(I)c1O[C@H]1C=C(C(=O)NCCO)C[C@@H](N(CCN2CCOCC2)C(=O)C2CCCO2)[C@@H]1O (stereo partly specified)" assay_value=0.413
molecule=C=CCOC(=O)[C@@H]1[C@H]2C(=O)O[C@H](c3ccccc3)[C@H](c3ccccc3)N2[C@H](c2ccc(OCCOC(=O)[C@@H]3C[C@@H]4C(=O)N[C@@H](CC(C)C)C(=O)N4[C@@H]3c3ccc(O)cc3)cc2)[C@@]12C(=O)Nc1ccc(I)cc12 assay_value=1.2
molecule=CC(C)(C)OC(=O)CC[C@@]1(C(N)=O)N=C(c2ccc(OCCCO)cc2)O[C@@H]1c1ccccc1CN=[N+]=[N-] assay_value=1.13

###

Parameter: composite z-score. Scope: all listed entries.
test system: Human papillomavirus type 1a protein E7 (residues 44-93); assay: HPV1a E7 fragment binders on microarrays, primary screen, biochemical, small-molecule microarray, residues 44-93, 635 nm fluorescence (AID 1108); settings: small-molecule microarray binding, fluorescence 635 nm; higher = more signal;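 further: E7 fragment applied at 1 µg/mL in TBST for 1 h at 4 C; score combines spot fluorescence with its signal to noise ratio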
measure_name: composite z-score

compound_structure=C=C(CCCC)C(=O)CC[C@H](OC(=O)c1ccccc1-c1ccccc1C(=O)O)c1cccc(OCCO)c1 assay_value=-0.109
compound_structure=CN(C)C(=O)[C@]1(CCS(=O)(=O)c2ccccc2)N=C(c2ccc(OCCCO)cc2)O[C@@H]1c1ccccc1CN=[N+]=[N-] assay_value=0.924
compound_structure=COCCOC(=O)N1C(=O)[C@@]2(c3cc(C#CCNC(N)=O)ccc31)[C@H](c1ccccc1OCCO)N1[C@H](c3ccccc3)[C@H](c3ccccc3)OC(=O)[C@H]1[C@@H]2C(=O)N1CCCCCCC1 assay_value=0.6

###

test system: Noggin (protein binding on small-molecule microarray); assay: Noggin binders on small-molecule microarray, primary screen, biochemical, 635/667 nm fluorescence (AID 1095); settings: 635 nm fluorescence, higher = more signal;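 further: score merges 667 nm feature fluorescence with signal to noise over triplicate slides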
Parameter: composite z-score. Scope: all listed entries.
measure_name: composite z-score

compound=O=C1O[C@@H](c2ccccc2)[C@@H](c2ccccc2)N2[C@@H](c3ccccc3OCCO)[C@]3(C(=O)Nc4ccc(C#CC5(O)CCCCCC5)cc43)[C@@H](C(=O)N3CCCCCCC3)[C@H]12 system_under_test="Noggin (protein binding on small-molecule microarray)" measure_name="composite z-score" assay_value=2.46
compound="CCCCN1CC=CC23O[C@@H]4/C=C\\CCCOC(=O)C4[C@H]2C(=O)N(CCCCCCO)[C@@H]3C1=O (some centres undefined)" system_under_test="Noggin (protein binding on small-molecule microarray)" measure_name="composite z-score" assay_value=-0.676
compound=Cc1ccc(S[C@]2(C(=O)NCc3ccccc3)CC(=O)N(Cc3ccccc3Cl)[C@@H]2c2ccc(CO)cc2)cc1 system_under_test="Noggin (protein binding on small-molecule microarray)" measure_name="composite z-score" assay_value=-0.761
compound=C[N+](C)(C)CCCC[C@@H]1NC(=O)[C@H]2C[C@@H](C(=O)NCCCCCN)[C@@H](c3ccc(O)cc3)N2C1=O system_under_test="Noggin (protein binding on small-molecule microarray)" measure_name="composite z-score" assay_value=1.57

###

assay: small-molecule binders of probe aLefty1, primary screen, biochemical, small-molecule microarray, 635/667 nm fluorescence (AID 1153); details: higher = more signal;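 further: score merges spot fluorescence with signal-to-noise ratio from the scanned slide images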
measure_name: composite z-score

molecule="COc1ccc(NN2C(C(O)c3ccc(F)cc3)C=CC3C(=O)N(C4CCCCC4)C(=O)C32)cc1 (stereo unspecified)" assay_value=0.0561
molecule=[N-]=[N+]=NCc1ccccc1[C@H]1OC(c2ccc(OCCCO)cc2)=N[C@@]1(CCS(=O)(=O)c1ccccc1)C(=O)O assay_value=0.328
molecule="CC1C2C(CCCO)=CC(C3C(=O)N(C(N)=O)C(=O)C23)N1Cc1cccc(OC(F)(F)F)c1 (stereo unspecified)" assay_value=0.0982
molecule=COC(=O)[C@@]1(Cc2ccc(F)cc2)[C@H]2c3cc(C(=O)N(C)C)n(CCF)c3C[C@H]2CN1C(=O)c1ccccc1 assay_value=-0.012
molecule=CC(C)(C)OC(=O)CC[C@@]1(C(=O)N2CCOCC2)N=C(c2ccc(OCCCO)cc2)O[C@@H]1c1ccccc1CN=[N+]=[N-] assay_value=0.85
molecule=CCc1cccc(NC(=O)O[C@H]2[C@H](OC(=O)Nc3ccccc3-c3ccccc3)[C@H](OC(=O)Nc3ccccc3-c3ccccc3)[C@@H](OC)O[C@@H]2CO)c1 assay_value=0.0442
molecule="CN1C(=O)C2C=CC(C(O)c3cccs3)N(N(c3ccccc3)c3ccccc3)C2C1=O (stereo unspecified)" assay_value=0.25
molecule=CC(C)C[C@@H]1NC(=O)[C@@H]2C[C@H](C(=O)NCCCCCCNC(=O)CS)[C@H](c3ccc(O)cc3)N2C1=O assay_value=0.197
molecule=CC(C)[Si](C#Cc1ccccc1)(O[C@H](c1ccccc1)c1cn(Cc2ccccc2)nn1)C(C)C assay_value=-0.275
molecule=O=C(NC1CC1)[C@@H]1c2ccccc2C(=O)N(C2CCCCC2)[C@H]1c1ccc(CO)cc1 assay_value=-0.28
molecule=C=CC[C@]12N=C(c3ccc(OCCCO)cc3)O[C@H]1c1ccccc1N(CCC)C2=O assay_value=1.26
molecule=COCCCNC(=O)[C@]1(Cc2ccccc2CN=[N+]=[N-])N=C(c2ccc(OCCCO)cc2)O[C@@H]1c1ccccc1N=[N+]=[N-] assay_value=0.87
molecule=CN(C)CCCC[C@@H]1NC(=O)[C@H]2C[C@@H](C(=O)NCCCCCCNC(=O)CS)[C@@H](c3cccc(OCCO)c3)N2C1=O assay_value=-0.139
molecule=CN(C)C(=O)[C@]1(CCS(=O)(=O)c2ccccc2)N=C(c2ccc(OCCCO)cc2)O[C@@H]1c1ccccc1CN=[N+]=[N-] assay_value=0.342
molecule=CC[C@@H](O[Si](C#C[Si](C(C)C)(C(C)C)C(C)C)(C(C)C)C(C)C)c1cn([C@H](C)c2ccccc2)nn1 assay_value=-0.0601
molecule="CC[C@H]1C2=C3C(CC[C@H]4C(OCc5ccc(F)cc5C(F)(F)F)OC[C@](C)([C@@H]34)N(C(=O)OC(C)(C)C)C2)C(COC(C)=O)C1COC(C)=O (stereo partly specified)" assay_value=0.713
